- Condition description: in 1,4-dioxane, 308.15 K
Entries and their solubility (mole fraction)
In your answer, state the number alone without any accompanying words.

Solved cases below.
| Entry smiles | Assay readout | Recorded result |
| --- | --- | --- |
| O=C(/C=C/c1ccc(-c2cccc([N+](=O)[O-])c2)o1)CO | solubility (mole fraction) | 0.0071 |
| O=C(/C=C/c1ccc(-c2cccc([N+](=O)[O-])c2)o1)c1ccc(Br)cc1 | solubility (mole fraction) | 0.00495 |
| O=C(/C=C/c1ccc(-c2cccc([N+](=O)[O-])c2)o1)c1ccccc1 | solubility (mole fraction) | 0.00565 |

Query: Give the value of solubility (mole fraction) reported for the following: `O=C(/C=C/c1ccc(-c2cccc([N+](=O)[O-])c2)o1)c1ccc([N+](=O)[O-])cc1`
Response: 0.00239

Query: Fill in solubility (mole fraction) for record `Nc1ccc(C(=O)/C=C/c2ccc(-c3cccc([N+](=O)[O-])c3)o2)cc1`
Response: 0.0025
